Tested on: Phytophthora capsici
ASSAY_METHOD_TEXT: Minimum inhibitory concentration, agar dilution
Assay type: cell-based
PARTICULARS: Phytophthora capsici; read-out: MIC
Reported MIC values follow for various compounds
Reply numerically in µg/mL, unit not repeated.

COC1=CC(=O)C[C@@H](C)[C@]12Oc1c(Cl)c(OC)cc(OC)c1C2=O = 100

Lab note: next compound to report on.
input: For the record C[C@@H]1C[C@@H]([C@H](O)CC2CC(=O)NC(=O)C2)C(=O)[C@@H](C)C1 [cycloheximide] , what value of MIC is listed for Phytophthora capsici?
output: 0.8
